All figures here come from paper PMC4336329.

Measured hERG current change (%, negative = inhibition) at 10uM by item
Target: human ether-à-go-go-related gene (hERG) potassium channel (human, UniProt Q12809)
Sequence (Q12809 whole entry, looked up): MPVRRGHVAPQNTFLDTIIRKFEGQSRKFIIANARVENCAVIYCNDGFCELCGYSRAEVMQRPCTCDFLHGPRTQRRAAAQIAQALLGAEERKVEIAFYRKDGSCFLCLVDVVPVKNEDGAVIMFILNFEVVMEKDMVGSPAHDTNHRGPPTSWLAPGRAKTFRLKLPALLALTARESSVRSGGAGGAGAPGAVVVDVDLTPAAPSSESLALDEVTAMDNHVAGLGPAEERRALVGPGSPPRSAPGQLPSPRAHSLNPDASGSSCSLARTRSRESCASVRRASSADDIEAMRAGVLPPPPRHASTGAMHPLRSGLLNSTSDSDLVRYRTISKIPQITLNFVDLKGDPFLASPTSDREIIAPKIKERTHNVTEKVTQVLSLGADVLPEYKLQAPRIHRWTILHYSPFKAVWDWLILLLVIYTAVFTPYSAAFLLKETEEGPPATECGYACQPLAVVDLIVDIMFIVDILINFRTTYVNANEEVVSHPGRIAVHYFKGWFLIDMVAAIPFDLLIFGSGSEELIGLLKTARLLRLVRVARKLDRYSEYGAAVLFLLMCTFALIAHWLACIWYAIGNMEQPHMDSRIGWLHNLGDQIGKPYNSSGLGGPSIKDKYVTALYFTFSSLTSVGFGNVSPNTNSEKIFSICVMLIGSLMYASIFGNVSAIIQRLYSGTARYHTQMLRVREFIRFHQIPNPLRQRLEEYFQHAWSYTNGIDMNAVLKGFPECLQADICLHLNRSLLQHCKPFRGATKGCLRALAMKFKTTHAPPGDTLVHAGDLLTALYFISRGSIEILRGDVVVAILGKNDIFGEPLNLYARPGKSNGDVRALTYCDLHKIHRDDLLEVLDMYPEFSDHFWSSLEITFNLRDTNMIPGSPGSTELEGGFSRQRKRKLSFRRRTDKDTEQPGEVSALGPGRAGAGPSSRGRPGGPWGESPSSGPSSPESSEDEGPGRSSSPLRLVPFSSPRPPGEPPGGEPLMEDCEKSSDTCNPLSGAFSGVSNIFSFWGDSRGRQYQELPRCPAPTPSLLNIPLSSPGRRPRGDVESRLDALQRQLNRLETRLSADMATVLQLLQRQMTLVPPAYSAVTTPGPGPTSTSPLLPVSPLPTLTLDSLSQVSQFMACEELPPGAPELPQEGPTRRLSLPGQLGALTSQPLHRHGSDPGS
Experiment: primary screen, population patch clamp on CHO cells stably expressing hERG; higher = less effect of the substance
About 14,000 (4.5%) of roughly 310,000 compounds showed an effect of 50% or more. The effect is printed as a negative number. The entries come from a sample that favours strong results as a whole.
Answer with a number only, understood to be in %.

The examples below pair each entry with its known result.
COc1ccc(CCn2c(-c3ccco3)nc3nc4ccccc4nc32)cc1; -3.77
COCCn1c(-c2ccco2)nc2nc3ccccc3nc21; 2.99
c1ccc(-c2nc3nc4ccccc4nc3n2Cc2ccco2)cc1; -61.2

Shift focus to the following entry.
State its hERG current change (%, negative = inhibition) at 10uM on human ether-à-go-go-related gene (hERG) potassium channel (human, UniProt Q12809): CCOc1ccc(OCC)c(NC(=O)C2CCCN(C(=O)c3ccc(Cl)cc3)C2)c1 (stereo not shown)
-34

---

Biological target: human ether-à-go-go-related gene (hERG) potassium channel (human, UniProt Q12809)
Test: primary screen, population patch clamp on CHO cells stably expressing hERG; higher = less effect of the substance
Out of some 310,000 compounds screened, about 14,000 (4.5%) showed an effect of 50% or more. Effects have a minus sign here. Shown is part of a subset that was picked to be rich in strong results.
Measured hERG current change (%, negative = inhibition) at 10uM by item
Answer with a number only, understood to be in %.

The examples below pair each entry with its known result.
O=C(NCc1ccco1)C(=O)c1cn(CC(=O)N2CCCCC2)c2ccccc12; 19.3
CCC(=O)c1ccc(N2CCN(C(=O)c3ccccc3)CC2)c(F)c1; -70.1

Please look up its hERG current change (%, negative = inhibition) at 10uM: CC(C)c1csc(CN2CCCC(CCC(=O)NCc3ccccc3F)C2)n1 (stereo not drawn)
-34.3

Please look up its hERG current change (%, negative = inhibition) at 10uM: COc1cc(NC(=O)C2CCC(CNc3c(N4CCC(C)CC4)c(=O)c3=O)CC2)cc(OC)c1 (stereo not drawn)
16.7

Please look up its hERG current change (%, negative = inhibition) at 10uM: CC1=C(C(=O)Nc2ccc(F)cc2)C(c2ccc(C)o2)C2=C(CC(C)(C)CC2=O)N1 (stereo not drawn)
-7.85

Please look up its hERG current change (%, negative = inhibition) at 10uM: `Cc1cc(C(=O)Nn2c(-c3ccncc3)nc3ccccc3c2=O)ccc1[N+](=O)[O-]`
31.8

Please look up its hERG current change (%, negative = inhibition) at 10uM: `CCC(=O)c1ccc(N2CCN(C(=O)c3ccc(Br)cc3)CC2)c(F)c1`
-16

---

Biological target: human ether-à-go-go-related gene (hERG) potassium channel (human, UniProt Q12809);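 also: peak tail current of the secondary pulse compared with the same well before compound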
Experiment: primary screen, population patch clamp on CHO cells stably expressing hERG; higher = less effect of the substance
The whole screen tested about 310,000 compounds, of which about 14,000 (4.5%) showed an effect of 50% or more. Effects have a minus sign here. The entries come from a sample that favours strong results as a whole.
Measured hERG current change (%, negative = inhibition) at 10uM by item
Answer with a number only, understood to be in %.

COc1ccc(S(=O)(=O)NCc2ccco2)c2ccccc12; -9.68

Shift focus to the following entry.
Please look up its hERG current change (%, negative = inhibition) at 10uM: `C/C(=N\NC(=O)c1ccc(Cl)cc1)c1ccc(Br)s1`
2.93

---

Biological target: human ether-à-go-go-related gene (hERG) potassium channel (human);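 also: peak tail current of the secondary pulse compared with the same well before compound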
Assay: primary screen, population patch clamp on CHO cells stably expressing hERG; higher = less effect of the substance
The campaign covered roughly 310,000 compounds. About 14,000 (4.5%) showed an effect of 50% or more. Effects have a minus sign here. This excerpt belongs to a sample that is enriched for strong results.
MEASUREMENT_LABEL: hERG current change (%, negative = inhibition) at 10uM (%)
Answer with a number only, understood to be in %.

The examples below pair each entry with its known result.
Cc1ccc(Cl)c(OCCN2CCCC(C)C2)c1.O=C(O)C(=O)O (stereo not drawn); -41.8
COc1cc(OC)c(OC)cc1CN1CCN(C(=O)Cc2ccccc2)CC1.O=C(O)C(=O)O; 5.5
CC1CCCCN1C(=O)C1CCN(S(=O)(=O)c2ccc(-n3cnnn3)cc2)CC1 (stereo not drawn); -61.5
Cc1ccccc1N1CC(C(=O)O)CC1=O (stereo not drawn); 14.1
O=C(Nc1cc2c3c(c1)CC(=O)N3CCC2)C1CCCCC1; -5.43

Please look up its hERG current change (%, negative = inhibition) at 10uM: `CCC(CC)C(=O)Nc1nnc(S(=O)(=O)N2CCCCCC2)s1`
1.54

Please look up its hERG current change (%, negative = inhibition) at 10uM: `Cc1ccc(S(=O)(=O)N2CCN(C(=O)CN3C(=O)c4ccccc4C3=O)CC2)c(C)c1`
9.02

Please look up its hERG current change (%, negative = inhibition) at 10uM: CC1CCCCN1S(=O)(=O)c1ccc(-n2cnnn2)cc1 (stereo not drawn)
-50.1

Please look up its hERG current change (%, negative = inhibition) at 10uM: CC1CCCN(C(=O)Nc2ccc(Br)cc2Cl)C1 (stereo not drawn)
-16.4

Please look up its hERG current change (%, negative = inhibition) at 10uM: CC1CCCN(CCCOc2ccc(Br)cc2Cl)C1.O=C(O)C(=O)O (stereo not drawn)
-78.4

Please look up its hERG current change (%, negative = inhibition) at 10uM: Fc1ccccc1C(c1nnnn1Cc1ccc2c(c1)OCO2)N1CCN(Cc2ccccc2)CC1 (stereo not drawn)
-55.3

Please look up its hERG current change (%, negative = inhibition) at 10uM: `CC1CCN(CCCCOc2ccccc2Br)CC1`
-48.9

Please look up its hERG current change (%, negative = inhibition) at 10uM: `CC1CCN(CCCOc2ccc(Br)cc2Cl)CC1`
-72.8

---

Biological target: human ether-à-go-go-related gene (hERG) potassium channel (human, UniProt Q12809);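 also: peak tail current of the secondary pulse compared with the same well before compound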
Experiment: primary screen, population patch clamp on CHO cells stably expressing hERG; higher = less effect of the substance
The whole screen tested about 310,000 compounds, of which about 14,000 (4.5%) showed an effect of 50% or more. Effects have a minus sign here. The sample as a whole holds a higher share of strong results than the screen did.
MEASUREMENT_LABEL: hERG current change (%, negative = inhibition) at 10uM (%)
Answer with a number only, understood to be in %.

The examples below pair each entry with its known result.
CCC(CC)c1nnc(NC(=O)c2cc(C(=O)OC)cc([N+](=O)[O-])c2)s1; 7.7
CCCCCNc1nc(N2CCCC2)c2c(c1C#N)CCN(C)C2; -72.8
CC(=O)Nc1c(-c2ccccc2)nc2ccc(Cl)cn12; 5.29
CCCCCNc1nc(NCCCO)c(C#N)c2c1CN(C)CC2; -75.2
CN(C)/C=C(/C(=O)c1ccc(Cl)c(Cl)c1)c1nnnn1-c1ccccc1; 9.85

Please look up its hERG current change (%, negative = inhibition) at 10uM: `CCc1nc(NCCC(C)C)c(C#N)c2c1CCCC2`
23.4

Please look up its hERG current change (%, negative = inhibition) at 10uM: `CCCCNc1nc(CC)c2c(c1C#N)CCCC2`
8.24

Please look up its hERG current change (%, negative = inhibition) at 10uM: `CCCCc1nc(NCCO)c(C#N)c2c1CCCC2`
-15.7

Please look up its hERG current change (%, negative = inhibition) at 10uM: `N#Cc1c(NCCCO)nc(NCc2ccccc2)c2c1CCN(Cc1ccccc1)C2`
-43.4

Please look up its hERG current change (%, negative = inhibition) at 10uM: `CCn1c(CNC(=O)c2cccs2)n[nH]c1=S`
3.27

---

Target: human ether-à-go-go-related gene (hERG) potassium channel (human);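 also: peak tail current of the secondary pulse compared with the same well before compound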
Experiment: primary screen, population patch clamp on CHO cells stably expressing hERG; higher = less effect of the substance
Screen size: about 310,000 compounds; about 14,000 (4.5%) showed an effect of 50% or more. Effects have a minus sign here. The full list was thinned out, with strong results kept by preference.
Measured hERG current change (%, negative = inhibition) at 10uM by item

CCOC(=O)c1[nH]c2ccc(F)cc2c1NC(=O)CN1CCN(C/C=C/c2ccccc2)CC1; -80.7%
O=C(Cc1ccc(-n2c(=O)c3ccccc3n(Cc3ccccc3Cl)c2=O)cc1)NCC1CCCO1 (stereo not drawn); -1.93%
C/C=C/c1ccccc1OCc1ccc(C(=O)O)o1; 20%
COc1ccc(C=Nc2cccc3ncccc23)cc1; 4.44%
N=c1c(C(=O)NCC2CCCO2)cc2c(=O)n3ccccc3nc2n1Cc1ccc(Cl)cc1 (stereo not drawn); -77.2%

State its hERG current change (%, negative = inhibition) at 10uM on human ether-à-go-go-related gene (hERG) potassium channel (human): Cc1ccc2nc(SCC(=O)N3CC(C)OC(C)C3)nc(=O)n2c1 (stereo not drawn)
-13%

State its hERG current change (%, negative = inhibition) at 10uM on human ether-à-go-go-related gene (hERG) potassium channel (human): CC1CCCCN1CCCNC(=O)c1ccc2nc(N3CCCCC3)sc2c1 (stereo not drawn)
-22.8%

State its hERG current change (%, negative = inhibition) at 10uM on human ether-à-go-go-related gene (hERG) potassium channel (human): `Cc1[nH]c2ccccc2c1C(=O)C(=O)N1CC=C(c2ccccc2)CC1`
-11.3%

State its hERG current change (%, negative = inhibition) at 10uM on human ether-à-go-go-related gene (hERG) potassium channel (human): `CC(C)Sc1nnc([C@@H]2CCCN2C(=O)OC(C)(C)C)o1`
14.7%
